Consider the following molecules; for each one, report its d(CA1,C5).
subjectOfTest: MASP-2 CCP2-SP (Homo sapiens (Human))
Sequence (O00187 445-686): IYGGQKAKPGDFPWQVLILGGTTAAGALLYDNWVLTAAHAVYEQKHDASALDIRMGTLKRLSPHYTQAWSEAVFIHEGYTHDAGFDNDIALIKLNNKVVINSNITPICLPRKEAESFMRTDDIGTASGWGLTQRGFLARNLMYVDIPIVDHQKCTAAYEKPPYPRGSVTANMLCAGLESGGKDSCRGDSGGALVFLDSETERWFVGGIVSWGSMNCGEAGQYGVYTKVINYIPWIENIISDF
Sequence (O00187 364-432 partner): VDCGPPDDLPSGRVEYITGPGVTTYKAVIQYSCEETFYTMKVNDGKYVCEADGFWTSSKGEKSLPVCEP
testMethodNotes: MASP-2 co-crystallization, X-ray crystallography and structure analysis (H-bonds, van der Waals contacts)
Parameters: unit not given beside the values
setupConditions: Table A5-1 pharmacophore: distance between elements, S2/S1 region

Examples with their reported d(CA1,C5) follow.
Q. Recall and state the measured d(CA1,C5) for C[C@H](NC(=O)[C@H]1C[C@@H](c2ccccc2)CCN1)C(=O)NCc1cc(Cl)ccc1O.Cl [1078_3] .
A. 3.13

Q. Recall and state the measured d(CA1,C5) for C[C@H](NC(=O)[C@H]1C[C@@H](c2ccccc2)CCN1)C(=O)NCc1cc(Cl)ccc1O.Cl [1078_1] .
A. 3.12

Q. Recall and state the measured d(CA1,C5) for CC(NC(=O)C1CC(Cc2ccccc2)CN1)C(=O)NCc1cnc2c(c1)c(Cl)cn2C.Cl.Cl (mixture of isomers) [1450_A] .
A. 3.55

Attention now turns to another entry.
Q. Recall and state the measured d(CA1,C5) for C[C@H](NC(=O)[C@H]1C[C@@H](c2ccccc2)CCN1)C(=O)NCc1cc(Cl)ccc1O.Cl [1078_16] .
A. 3.13
